- Tested on: Mus musculus
- EXPERIMENT_NOTES: Toxicity in ip dosed C3H X DBA2 F1 hybrid mouse […] with mouse L1210 cells on day 0 and dosed once daily on days 1 to 5 measured after 50 days
- Type: organism-based
- TEST_CONTEXT: in vivo, 1200 h
Below is a list of entries, each paired with its recorded log10 of LD10 value.
PROPERTY_MEASURED: log10 of LD10 (log10 of the value in mg/kg)

- CCCC[n+]1cccc2cc(NC(=O)c3ccc(C(=O)Nc4ccc5c(ccc[n+]5CCCC)c4)cc3)ccc21.Cc1ccc(S(=O)(=O)[O-])cc1.Cc1ccc(S(=O)(=O)[O-])cc1: 1.77
- CC[n+]1cccc2cc(NC(=O)c3ccc(NC(=O)c4ccc5c(ccc[n+]5CC)c4)cc3)ccc21.Cc1ccc(S(=O)(=O)[O-])cc1.Cc1ccc(S(=O)(=O)[O-])cc1: 0.60
- C[n+]1ccc(Nc2ccc(NC(=O)c3ccc(Nc4cc[n+](C)c5ccc(Cl)cc45)cc3)cc2)cc1.Cc1ccc(S(=O)(=O)[O-])cc1.Cc1ccc(S(=O)(=O)[O-])cc1: 1.60
- C[n+]1cccc(NC(=O)c2ccc(NC(=O)c3ccc(C(=O)Nc4ccc[n+](C)c4)cc3)cc2)c1.Cc1ccc(S(=O)(=O)[O-])cc1.Cc1ccc(S(=O)(=O)[O-])cc1: 0.60
- C[n+]1ccccc1Nc1ccc(NC(=O)c2ccc(C(=O)Nc3ccc(Nc4cccc[n+]4C)cc3)cc2)cc1.Cc1ccc(S(=O)(=O)[O-])cc1.Cc1ccc(S(=O)(=O)[O-])cc1: 1.20
- CC[n+]1ccc(Nc2ccc(NC(=O)c3ccc(Nc4cc[n+](CC)c5cc(N)ccc45)cc3N)cc2)cc1.[Br-].[Br-]: 1.04
- C[n+]1cc(-c2ccc(NC(=O)/C=C/c3ccc(C(=O)Nc4ccc(-c5c[n+](C)c(N)nc5N)cc4)cc3)cc2)c(N)nc1N.Cc1ccc(S(=O)(=O)[O-])cc1.Cc1ccc(S(=O)(=O)[O-])cc1: 1.70
- C[n+]1ccc(Nc2ccc(NC(=O)c3ccc(C(=O)Nc4ccc(C(=O)Nc5ccc[n+](C)c5)cc4)cc3)cc2)cc1.[I-].[I-]: 0.65
- CC[n+]1ccccc1-c1ccc(NC(=O)c2ccc(C(=O)Nc3ccc(-c4cccc[n+]4CC)cc3)cc2)cc1.Cc1ccc(S(=O)(=O)[O-])cc1.Cc1ccc(S(=O)(=O)[O-])cc1: 1.00
- Cc1cc(C(=O)Nc2ccc[n+](C)c2)ccc1NC(=O)c1ccc(C(=O)Nc2ccc(C(=O)Nc3ccc[n+](C)c3)cc2C)cc1.Cc1ccc(S(=O)(=O)[O-])cc1.Cc1ccc(S(=O)(=O)[O-])cc1: 1.60
- CC[n+]1cccc2cc(NC(=O)CCc3ccc(C(=O)Nc4ccc5c(ccc[n+]5CC)c4)cc3)ccc21.Cc1ccc(S(=O)(=O)[O-])cc1.Cc1ccc(S(=O)(=O)[O-])cc1: 0.20

###

- EXPERIMENT_NOTES: Lipophilic-hydrophilic balance, Rm of the compound by partition chromatography
- Assay type: physicochemical
PROPERTY_MEASURED: Rm

- Cc1cc(Nc2ccc(NC(=O)c3ccc(C(=O)Nc4ccc(C(=O)Nc5ccc[n+](C)c5)cc4)cc3)cc2)nc(N)n1.I.[I-]: -0.3
- CCOCC[n+]1cccc2cc(NC(=O)c3ccc(C(=O)Nc4ccc5c(ccc[n+]5CCOCC)c4)cc3)ccc21.Cc1ccc(S(=O)(=O)[O-])cc1.Cc1ccc(S(=O)(=O)[O-])cc1: 0.8
- CC[n+]1ccc(Nc2ccc(NC(=O)/C=C/c3ccc(C(=O)Nc4ccc(Nc5cc[n+](CC)cc5)cc4)cc3)cc2)cc1.Cc1ccc(S(=O)(=O)[O-])cc1.Cc1ccc(S(=O)(=O)[O-])cc1: -0.03
- C[n+]1cccc2cc(NC(=O)c3ccc(C(=O)Nc4ccc(NC(=O)c5ccc6c(ccc[n+]6C)c5)cc4)cc3)ccc21.Cc1ccc(S(=O)(=O)[O-])cc1.Cc1ccc(S(=O)(=O)[O-])cc1: -0.57
- CCCCC[n+]1cccc2cc(NC(=O)c3ccc(C(=O)Nc4ccc5c(ccc[n+]5CCCCC)c4)c(N)c3)ccc21.Cc1ccc(S(=O)(=O)[O-])cc1.Cc1ccc(S(=O)(=O)[O-])cc1: 0.85
